- SYSTEM_UNDER_TEST: JAK3 (Homo sapiens, UniProt P52333)
- Sequence (P52333 whole entry, species assumed): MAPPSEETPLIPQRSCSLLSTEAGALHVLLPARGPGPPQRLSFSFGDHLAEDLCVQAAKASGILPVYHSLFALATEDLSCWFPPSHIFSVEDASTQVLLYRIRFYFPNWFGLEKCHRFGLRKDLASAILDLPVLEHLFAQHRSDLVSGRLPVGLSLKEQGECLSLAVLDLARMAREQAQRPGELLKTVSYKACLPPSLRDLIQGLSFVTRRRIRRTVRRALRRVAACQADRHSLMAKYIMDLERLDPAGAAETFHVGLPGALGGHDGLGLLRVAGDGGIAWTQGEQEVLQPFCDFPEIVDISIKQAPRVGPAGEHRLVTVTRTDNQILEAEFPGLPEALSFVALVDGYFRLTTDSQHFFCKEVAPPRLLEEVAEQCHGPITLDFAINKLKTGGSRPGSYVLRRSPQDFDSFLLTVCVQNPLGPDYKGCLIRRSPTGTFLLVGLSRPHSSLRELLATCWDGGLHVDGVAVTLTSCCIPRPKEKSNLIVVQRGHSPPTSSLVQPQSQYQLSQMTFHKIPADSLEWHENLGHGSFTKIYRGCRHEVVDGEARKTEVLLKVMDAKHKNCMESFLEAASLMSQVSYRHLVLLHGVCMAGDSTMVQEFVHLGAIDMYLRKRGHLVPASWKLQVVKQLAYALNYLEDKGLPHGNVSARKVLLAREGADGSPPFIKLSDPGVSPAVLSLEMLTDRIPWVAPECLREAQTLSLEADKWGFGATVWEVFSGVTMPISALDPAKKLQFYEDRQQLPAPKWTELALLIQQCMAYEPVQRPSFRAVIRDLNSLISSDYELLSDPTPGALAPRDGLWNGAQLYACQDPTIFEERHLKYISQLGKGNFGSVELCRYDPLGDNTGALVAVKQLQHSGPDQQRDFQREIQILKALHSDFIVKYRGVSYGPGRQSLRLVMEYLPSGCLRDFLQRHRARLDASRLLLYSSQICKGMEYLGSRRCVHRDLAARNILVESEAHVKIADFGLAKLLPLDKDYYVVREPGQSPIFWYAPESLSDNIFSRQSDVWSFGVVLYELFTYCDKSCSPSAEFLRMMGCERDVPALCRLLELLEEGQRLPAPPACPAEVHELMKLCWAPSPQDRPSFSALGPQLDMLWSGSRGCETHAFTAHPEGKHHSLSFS
- EXPERIMENTAL_DETAILS: JAK3 inhibition assay (radiometric 33P filter assay)
- Type: biochemical
- EXPERIMENTAL_PARAMETERS: 1 μM poly(Glu)4Tyr, 5 μM ATP, 1 nM JAK3, 25° C.; read-out: JAK3 inhibition data (Ki)
pKi: −log10 of the molar value.
pKi reference

COC(=O)N1CCCN(c2cc(-n3nc(Nc4ccc(N5CCN(C(=O)OC(C)C)CC5)cc4)nc3N)ccn2)CC1: 6.30 to 7.30
CC(=O)N1[C@H](C)CN(c2cc(-n3nc(Nc4ccc(NC(=O)Oc5ccc(C)cc5)cc4)nc3N)ncn2)C[C@@H]1C: > 7.30
CC(=O)N1CCCN(c2cc(-n3nc(Nc4ccc(NC(=O)OCC(C)C)cc4)nc3N)ccn2)CC1: 6.30 to 7.30

Qu. For CC(=O)N1CCCN(c2cc(-n3nc(Nc4ccc(NC(=O)c5ccco5)cc4)nc3N)ncn2)CC1 , what is its reported pKi?
Ans. > 7.30

###

Catalogue of pKi values
- SYSTEM_UNDER_TEST: JAK3 (Homo sapiens, UniProt P52333)
- EXPERIMENTAL_DETAILS: JAK3 inhibition assay (radiometric 33P filter assay)
- Type: biochemical
- EXPERIMENTAL_PARAMETERS: 1 μM poly(Glu)4Tyr, 5 μM ATP, 1 nM JAK3, 25° C.; read-out: JAK3 inhibition data (Ki)
pKi: −log10 of the molar value.

Solved cases (2 shown):
CC(=O)N1[C@H](C)CN(c2cc(-n3nc(Nc4ccc(NC(=O)NC5CCCCC5)cc4)nc3N)ncn2)C[C@@H]1C: > 7.30
CCCOC(=O)N1CCN(c2ccc(Nc3nc(N)n(-c4ccnc(N5C[C@@H](C)N(C(C)=O)[C@@H](C)C5)c4)n3)cc2)CC1: > 7.30

Qu. Requested field: pKi. Item: CC(=O)N1[C@H](C)CN(c2cc(-n3nc(Nc4ccc(N)cc4)nc3N)ccn2)C[C@@H]1C
Ans. > 7.30

Qu. Entry to check: COC(=O)N1CCN(c2ccc(Nc3nc(N)n(-c4cc(N5C[C@@H](C)N(C(C)=O)[C@@H](C)C5)ncn4)n3)cc2)CC1
Ans. > 7.30

Qu. Same thing, different molecule: CC(=O)N1[C@H](C)CN(c2cc(-n3nc(Nc4ccc(N5CCN(C(=O)Nc6c(F)cccc6F)CC5)cc4)nc3N)ncn2)C[C@@H]1C
Ans. > 7.30

Qu. Record: CS(=O)(=O)N1CCCN(c2cc(-n3nc(Nc4ccc(N5CCOCC5)cc4)nc3N)ncn2)CC1
Ans. > 7.30

Qu. Consider next the molecule CC(=O)N1[C@H](C)CN(c2cc(-n3nc(Nc4ccc(N5CCN(C(=O)NC(C)C)CC5)cc4)nc3N)ncn2)C[C@@H]1C in the same way.
Ans. > 7.30

###

Recorded Ki for the following compounds
- SYSTEM_UNDER_TEST: JAK-2 enzyme (Homo sapiens, UniProt O60674)
- Sequence (O60674 whole entry, species assumed): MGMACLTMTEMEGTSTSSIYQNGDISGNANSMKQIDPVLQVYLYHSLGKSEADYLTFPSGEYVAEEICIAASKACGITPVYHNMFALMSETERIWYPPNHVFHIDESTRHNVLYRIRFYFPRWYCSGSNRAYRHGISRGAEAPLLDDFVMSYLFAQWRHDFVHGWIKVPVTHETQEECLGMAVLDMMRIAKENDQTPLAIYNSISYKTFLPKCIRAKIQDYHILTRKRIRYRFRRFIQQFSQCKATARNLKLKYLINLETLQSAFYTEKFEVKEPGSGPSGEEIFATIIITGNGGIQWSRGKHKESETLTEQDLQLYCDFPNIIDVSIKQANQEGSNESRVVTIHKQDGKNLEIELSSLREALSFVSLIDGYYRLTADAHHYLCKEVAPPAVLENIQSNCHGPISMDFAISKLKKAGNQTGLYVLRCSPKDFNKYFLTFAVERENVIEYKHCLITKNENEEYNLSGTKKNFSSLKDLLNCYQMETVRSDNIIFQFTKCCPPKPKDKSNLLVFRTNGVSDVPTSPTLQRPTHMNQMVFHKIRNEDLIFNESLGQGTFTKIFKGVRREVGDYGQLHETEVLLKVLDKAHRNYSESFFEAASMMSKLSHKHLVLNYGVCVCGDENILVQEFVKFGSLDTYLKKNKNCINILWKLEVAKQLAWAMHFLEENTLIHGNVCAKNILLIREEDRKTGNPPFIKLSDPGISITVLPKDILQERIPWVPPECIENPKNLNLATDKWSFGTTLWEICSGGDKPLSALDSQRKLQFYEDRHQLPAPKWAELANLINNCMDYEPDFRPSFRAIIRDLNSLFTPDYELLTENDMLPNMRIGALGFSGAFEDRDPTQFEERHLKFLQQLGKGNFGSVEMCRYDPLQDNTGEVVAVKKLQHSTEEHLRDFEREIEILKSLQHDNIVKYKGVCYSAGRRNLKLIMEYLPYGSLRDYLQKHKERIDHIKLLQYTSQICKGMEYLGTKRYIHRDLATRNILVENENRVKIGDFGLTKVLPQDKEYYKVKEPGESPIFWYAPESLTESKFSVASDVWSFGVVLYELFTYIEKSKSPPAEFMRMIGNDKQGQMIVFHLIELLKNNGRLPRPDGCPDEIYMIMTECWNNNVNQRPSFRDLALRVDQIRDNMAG
- EXPERIMENTAL_DETAILS: JAK2 inhibition assay (radiometric 33P filter assay)
- Assay type: biochemical
- EXPERIMENTAL_PARAMETERS: 15 μM poly(Glu)4Tyr, 12 μM ATP; read-out: JAK2 inhibition data (Ki)

The cases that follow already have their Ki on record.
CS(=O)(=O)N1CCCN(c2cc(-n3nc(Nc4ccc(N5CCOCC5)cc4)nc3N)ncn2)CC1: < 50 nM
CCNC(=O)Nc1ccc(Nc2nc(N)n(-c3cc(N4C[C@@H](C)N(C(C)=O)[C@@H](C)C4)ncn3)n2)cc1: < 50 nM
CC(=O)N1CCCN(c2cc(-n3nc(Nc4ccc(NC(=O)OC(C)(C)C)cc4)nc3N)ncn2)CC1: < 50 nM
Nc1nc(Nc2ccc(N3CCOCC3)cc2)nn1-c1cc(N2CCN3C(=O)CC[C@H]3C2)ncn1: < 50 nM
CC(=O)N1[C@H](C)CN(c2cc(-n3nc(Nc4ccc(N5CCN(C(=O)NC(C)C)CC5)cc4)nc3N)ncn2)C[C@@H]1C: < 50 nM
CCNC(=O)N1CCN(c2ccc(Nc3nc(N)n(-c4cc(N5C[C@@H](C)N(C(C)=O)[C@@H](C)C5)ncn4)n3)cc2)CC1: < 50 nM
CC(=O)N1CCCN(c2cc(-n3nc(Nc4ccc(NC(=O)OCC(C)C)cc4)nc3N)ncn2)CC1: < 50 nM
CC(=O)N1[C@H](C)CN(c2cc(-n3nc(Nc4ccc(NC(=O)NC5CCCCC5)cc4)nc3N)ncn2)C[C@@H]1C: < 50 nM

Qu. Fill blank: measured Ki of the compound CCS(=O)(=O)N1CCN(c2ccc(Nc3nc(N)n(-c4ccnc(N5CCCN(C(=O)OC(C)C)CC5)c4)n3)cc2)CC1 is ____.
Ans. 50 to 500 nM

Qu. Another compound to check: CCCOC(=O)N1CCN(c2ccc(Nc3nc(N)n(-c4ccnc(N5CCCN(S(=O)(=O)CC)CC5)c4)n3)cc2)CC1
Ans. 50 to 500 nM

Qu. // next record CC(=O)N1CCCN(c2cc(-n3nc(Nc4ccc(NC(=O)OC(C)C)cc4)nc3N)ncn2)CC1
Ans. < 50 nM

Qu. What about CC(=O)N1[C@H](C)CN(c2cc(-n3nc(Nc4ccc(NC(=O)O[C@@H]5C[C@@H](C)CC[C@@H]5C(C)C)cc4)nc3N)ncn2)C[C@@H]1C ?
Ans. < 50 nM

Qu. Thanks! And CCCOC(=O)Nc1ccc(Nc2nc(N)n(-c3cc(N4C[C@@H](C)N(C(C)=O)[C@@H](C)C4)ncn3)n2)cc1 ?
Ans. < 50 nM

Qu. Next up: CCCNC(=O)Nc1ccc(Nc2nc(N)n(-c3ccnc(N4C[C@@H](C)N(C(C)=O)[C@@H](C)C4)c3)n2)cc1
Ans. < 50 nM
